Source of measurements: patent US20230365563A1

system name: KRAS-G12D and SOS1 (Homo sapiens, UniProt P01116, G12D)
Sequence (P01116 1-188 isoform P01116-2 G12D): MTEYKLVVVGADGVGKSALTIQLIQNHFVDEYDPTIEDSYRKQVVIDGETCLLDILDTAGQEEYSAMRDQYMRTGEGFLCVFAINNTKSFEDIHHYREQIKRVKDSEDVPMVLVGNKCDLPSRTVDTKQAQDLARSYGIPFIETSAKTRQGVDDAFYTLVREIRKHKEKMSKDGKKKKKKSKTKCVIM
test name: Inhibition of KRAS-G12D/SOS1 binding (Cisbio binding kit, 665/615 ratio), Effect Embodiment A
test context: read-out: GTP-KRAS-G12D:SOS1 IC50
Structures can show the parent of a compound that is named as a salt.
measured property: IC50 (nM)

Study these solved cases before continuing.
- molecule: "CN1C[C@@H]2C[C@@H]2[C@H]1COc1nc(N2CC3CCC(C2)N3)c2cnc(-c3cc(O)cc4ccccc34)c(F)c2n1 [Compound 140, dihydrochloride]"
  system name: "KRAS-G12D and SOS1 (Homo sapiens, UniProt P01116, G12D)"
  measured property: "IC50"
  recorded number: 32.8
- molecule: "Oc1cc(-c2c(Cl)cc3c(N4CC5CCC(C4)N5)nc(OCC(CN4C5CCC4COC5)C(F)(F)F)nc3c2F)c2ccccc2c1 (single isomer, unassigned) [Compound 218a]"
  system name: "KRAS-G12D and SOS1 (Homo sapiens, UniProt P01116, G12D)"
  measured property: "IC50"
  recorded number: 91.9
- molecule: "Oc1cc(-c2c(Cl)cc3c(N4CC5CCC(C4)N5)nc(OCCCN4CCC5(CCOCC5)C4)nc3c2F)c2ccccc2c1 (single isomer, unassigned)"
  system name: "KRAS-G12D and SOS1 (Homo sapiens, UniProt P01116, G12D)"
  measured property: "IC50"
  recorded number: 25.3

1 = C=CCN1CCC[C@H]1COc1nc(N2CC3CCC(C2)N3)c2cc(F)c(-c3cc(O)cc4ccc(F)c(CC)c34)c(F)c2n1 (single isomer, unassigned) [Compound 287a, dihydrochloride]
2 = CN(C)C1CN(c2nc(N3C[C@H]4CC[C@@H](C3)[C@@H]4N)c3cc(Cl)c(-c4cc(O)cc5ccccc45)c(F)c3n2)C1 (single isomer, unassigned)
3 = CN1CCN(CCCOc2nc(N3CC4CCC(C3)N4)c3cc(Cl)c(-c4cc(O)cc5ccccc45)c(F)c3n2)CC1 (single isomer, unassigned) [Compound 99, dihydrochloride]
Sort low-to-high on IC50, please. Form entry: labels listed in requested order. 1, 3, 2
(1: 10.1 nM, 3: 52.2 nM, 2: 1230 nM)

I = CN(C)C1CN(c2nc(C3(C(N)=O)CNC3)c3cc(Cl)c(-c4cc(O)cc5ccccc45)c(F)c3n2)C1 (single isomer, unassigned) [Compound 22b, bistrifluoroacetate]
II = CN(C)C1CN(c2nc(N3CCC4(CC3)CNC4)c3cc(Cl)c(-c4cc(O)cc5ccccc45)c(F)c3n2)C1 (single isomer, unassigned) [Compound 11a]
Pick the one with the larger IC50: I vs II Mark your answer with the label of the selected entry. I
(I: 2420 nM, II: 1530 nM)

1 = Oc1cc(-c2c(Cl)cc3c(N4CC5CCC(C4)N5)nc(OCC45CCCN4CCC5)nc3c2F)c2ccccc2c1 (single isomer, unassigned) [Compound 58a]
2 = Oc1cc(Cl)c(C2CC2)c(-c2c(Cl)cc3c(N4CC5CCC(C4)N5)nc(OCCCN4C5CCC4COC5)nc3c2F)c1 (single isomer, unassigned) [Compound 197b]
Pick the one with the larger IC50: 1 vs 2 Mark your answer with the label of the selected entry. 2
